These entries and their values trace back to ChEMBL document CHEMBL5321286.

Test: Cytotoxicity against human HepDES19 cells assessed as reduction in cell viability incubated for 72 hrs by MTS assay
Type: toxicity, cell-based
Conditions: HepDES19 cells
Here the recorded CC50 at 72 h is given for each entry.
The response must be a number in µM with no trailing unit.

Here are 3 compounds together with their reported answers.
* Cc1nc(N2CC[N+]3(CCC[N+]4(CCNCC4)CC3)CC2)c([N+](=O)[O-])c(N2CC[N+]3(CCC[N+]4(CCNCC4)CC3)CC2)n1 | 100
* O=Cc1c(N2CCC[N+]3(CC2)CC[N+]2(CCCNCC2)CC3)nc(-c2ccccc2)nc1N1CCC[N+]2(CC1)CC[N+]1(CCCNCC1)CC2 (stereo not given) | 92
* O=[N+]([O-])c1c(N2CC[N+]3(CCC[N+]4(CCNCC4)CC3)CC2)ncnc1N1CC[N+]2(CCC[N+]3(CCNCC3)CC2)CC1 | 100

response.value for O=Cc1c(N2CC[N+]3(CCC[N+]4(CCNCC4)CC3)CC2)ncnc1N1CC[N+]2(CCC[N+]3(CCNCC3)CC2)CC1 (field: CC50 at 72 h) = 100

response.value for O=[N+]([O-])c1c(N2CCC[N+]3(CC2)CC[N+]2(CCCNCC2)CC3)ncnc1N1CCC[N+]2(CC1)CC[N+]1(CCCNCC1)CC2 (stereo not given) (field: CC50 at 72 h) = 100
